B1: DLC1 (parent)
chain: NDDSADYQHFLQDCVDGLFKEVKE

- Variants of: B1
- test summary: protein stability index of a GFP-peptide fusion (GPS, HEK-293T) (PSI 1-6); higher = more stable;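 note: lentivirally expressed fusions sorted by FACS into six bins by GFP to DsRed ratio, PSI derived from sequencing read proportions per bin multiplied by bin number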
- condition label: c terminus: a fixed tail appended
Entry flag: Condition met if protein stability index reaches 4; Condition not met if it does not.

| mutation spec | assigned class |
| --- | --- |
| Y7P | Condition met |

stdin: State whether the measured protein stability index reaches 4, counting equality as reaching it, for `K20R`
stdout: Condition not met

stdin: State whether the measured protein stability index reaches 4, counting equality as reaching it, for `G17P`
stdout: Condition met
